# assayed system: rat B1R (bradykinin receptor 1) (Rattus norvegicus)
# Construct: expressed in transfected cells; host or cells: CHO K1 cells
# Sequence (P97583 whole entry): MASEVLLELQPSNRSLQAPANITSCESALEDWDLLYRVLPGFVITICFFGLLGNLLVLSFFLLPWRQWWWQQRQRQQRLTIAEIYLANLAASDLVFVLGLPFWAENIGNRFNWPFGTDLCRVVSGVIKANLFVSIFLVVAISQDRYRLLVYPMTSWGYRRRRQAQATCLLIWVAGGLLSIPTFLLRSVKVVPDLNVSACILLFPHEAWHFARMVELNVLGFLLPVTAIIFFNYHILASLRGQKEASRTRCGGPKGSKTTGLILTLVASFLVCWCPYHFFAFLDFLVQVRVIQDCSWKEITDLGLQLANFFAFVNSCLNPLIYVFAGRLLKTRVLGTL
# assay text: FLIPR Ca2+ assay (Fluo-4) on CHO K1 cells stably transfected with the B1R gene of the rat (rB1R cells): % inhibition at 10 μM / IC50, agonist Des-Arg9-bradykinin
# Format: cell-based
# test conditions: CHO-K1, rat B1R
# Description: The agonistic or antagonistic action of substances can be quantified on the bradykinin receptor 1 (B1R) of the human and rat species with ectopically expressing cell lines (CHO K1 cells) and with the aid of a Ca^2+-sensitive dyestuff (Fluo-4) in a fluorescent imaging plate reader (FLIPR). […] The agonistic or antagonistic action of substances can be determined on the bradykinin receptor 1 (B1R) of the human and rat species with the following assay. […]
observable: inhibition at 10 µM (%)

Annotate the compound O=C(NC1CCc2ccc(C(=O)N3CCC4(CCN(c5ccncc5)CC4)C3)cc21)c1ccc(F)cc1C(F)(F)F (stereo not shown) [IND_CC-382] with its measured inhibition at 10 µM.
103

Annotate the compound O=C(N[C@@H]1CCCc2ccc(C(=O)N3CCC4(CCCN(c5ccncc5)C4)C3)cc21)c1ccccc1Cl (stereo partly shown) [Example H-81] with its measured inhibition at 10 µM.
103

Annotate the compound Cc1cccc(C)c1C(=O)NC1CCc2ccc(C(=O)N3CCC4(CC3)CCN(c3ccncc3)C4)cc21 (stereo not shown) [IND_CC-295] with its measured inhibition at 10 µM.
106

Annotate the compound O=C(NC1CCc2ccc(C(=O)N3CCC4(CCN(Cc5ccc(F)cc5F)CC4)C3)cc21)c1ccccc1Cl (stereo not shown) [IND_CC-544] with its measured inhibition at 10 µM.
99

Annotate the compound O=C(NC1CCc2ccc(C(=O)N3CCC4(CCN(Cc5c(F)cccc5Cl)CC4)CC3)cc21)c1ccccc1Cl (stereo not shown) [IND_CC-530] with its measured inhibition at 10 µM.
96

(a) CC1(C)CC(NC(=O)/C=C/c2ccccc2Cl)c2cc(C(=O)N3CCC4(CC3)CCN(c3ccncc3)CC4)ccc21 (stereo not shown) [Ind_CC-060]
(b) Cc1noc(C)c1CN1CCC2(CC1)CCN(C(=O)c1ccc3c(c1)C(NC(=O)c1cccc(Cl)c1Cl)CC3)C2 (stereo not shown) [IND_CC-723]
Which has the smaller recorded inhibition at 10 µM, a or b ? Bench note: the answer is the label of the chosen record.
b
(b: 55%, a: 94%)
